assay: folding stability dG unfold from chymotrypsin proteolysis; higher = more stable

| Chain Sequence | folding stability dG unfold / kcal/mol |
| --- | --- |
| NIRFPDGREIEIPPEPGEEYEIMLPNGPEIKIKKIKYENGEPTIEIERKDGGKKEHEMPPNQPDQILDAIRS [r1_66_TrROS] | 0.421 |
| SALDPAAGTVTATVTRPVTLPDGRTVPVTRPVRVPVTYDVVVRDPETGEVVRAADYDPETGRLRDASAASAG [r14_122_TrMRF] | 0.548 |
| SAGGSAGGSSSVTPVPETTLVTLTPPDGSPPVLGTVFPATGTMLLFYPDSVLLLPLGPGTTLFSAGGSAGGS [r12_536_JUSTAS] | 0.503 |
| SAGGKILIYPGSIEEAIEALKANPNTTVLVISPDGTLIEITVEELGPGPFKIDIKVIPLLPPLKPDEASAGG [r13_56_TrMRF] | 2.21 |
| SPLKEGDTLTFTLPVPDLPNVRIEIDLHFYKDPNTDRYRVLANITVYYGDKPVTFSIEMPVDTFLDLLKSSA [r9_71_TrMRF] | 2.34 |
| SAGGSAGGSMTILEEEVVPETGLVRILVKLPNGELLELEVDPSVGVTPVKVDGKPIFDVTVDPSAGGSAGGS [r12_789_JUSTAS] | 1.3 |
| SAGGSYMVKVEWRNNNKEMEMTHPFDDPEDALNFAHDLLPNGMELDIEVFDPKEGEPIGTVPFRVDSAGGSA [r2_390_TrROS] | -0.536 |
| SAGPPPVKVTVTADYVIEDGKPIVTYTLTFPDGSTTTVTSDPETLVEWLKQHYPDIDVLNFNSGTAPAASAG [r5_25_JUSTAS] | 4.05 |
| SAGGSAGGSAGGPPYEVNIYIKFRPPDGKPPTFPIDVNVNDPEDAKDELEDNFPNMEIVSAGGSAGGSAGGS [r10_1248_TrROS] | 0.996 |
| SAGGSAGGSAGGSMKNVPVTVEGSSSVVPLPDGSPVTVTELTTTTLGENGEVSTSTTVVSSAGGSAGGSAGG [r11_817_JUSTAS] | 1.34 |
| SAGGSAGGSAGGMLTIVEVLSKDPEKPVYTVKVKFPDGSEKTLEVPPELLSNPEKEIVLESAGGSAGGSAGG [r7_117_JUSTAS] | 1.44 |
| SAGGAEELAKRLAEELREAGYEVEVVKVERLENGEVVITMKVRVVKDGKEVEEREIKLVLKLPEELLSAGGS [r8_102_TrROS_Hall] | 4.03 |
| SAGGSAGIEVHPEGTVRIEVGGRSLTVTPADAVDVTQEGDKIVVTITRRDADGTPVGTLPVTVELASAGGSA [r15_424_JUSTAS] | 0.835 |
| SAGGMRIELVRTYIEEPDENGKLKGSGYREVLVLRPPPPVIRVPPELLEEAEELRKKLDGPVEPEELGSAGG [r19_315_JUSTAS] | 3.6 |
| NYRVEIDDMELFPAPPGQEIRIPLKVEDDGQEHELEEIQVNPDDGYITMKVKIEPDGEPKEFTITIPIPPGS [r1_47_TrROS] | 0.158 |
| SAGGSAGGSADWQKLEYPFPPGMPLDNIKEELRDLFPGKKPTIEIDKIEPHNGQYWIKITVKSAGGSAGGSA [r18_360_TrROS] | 0.0785 |
| SAGGSAGGGKSFSIPVDDAVILDYDPVTKRLTILLPGPGVELVLPLDKVKRIEIDPETGTIHVESAGGSAGG [r6_313_TrMRF] | 1.61 |
| SAGGSAPEVRLSASREGNTVTVLALKPVGDRTYLVVTTYEVRELGEGFLVLSSSEVIPLPDGEGFFSAGGSA [r15_725_TrMRF] | 2.66 |
| SAGGSAGGSGGTIKLPLYPPEGKEYKGTIPKEKLEAAIAKGEPIKVTLKTKGKEVKEYTIPIKSAGGSAGGS [r12_991_JUSTAS] | -0.582 |
| SAGGSAGGSAGGIGPEIVEAALIEAKEKVPEDEEVEILVRDPVTGEVLRLRIYPDRVELGSAGGSAGGSAGG [r7_44_TrMRF] | 0.785 |
| SMKINVVINITLPDGTTVTSTLNLTESEIEKTIKEKIPSSYKVEITKKDPVDPAKLPPGSSINVDLTVNLSA [r9_803_JUSTAS] | 1.69 |
| MKEITVTLPVPEEVLAAIRAGKPLPLEEIKERVKEEIAKRLGYKNVTIKSVKVEKLPDGSLVIKVKVEFLPS [r1_290_JUSTAS] | 3.58 |
| SAGDNNKKPKYVYIPITINVPLPPGQTHEEAVDEVRLIMEELFPPGFKISEVKVHPEYNTVTVWIQIRSAGG [r19_81_TrROS] | 2.16 |
| SAGGSAGGSAEPDIEVVVTPVPGPYGPLYYRVEVRIPEAGRTVFTYARLDDPEEIEGIPIESAGGSAGGSAG [r3_432_TrMRF] | 0.545 |
| SAGGSAGGSAGDAEEIADEIRENMYGPDGKYVPKEVEIKEIEPPPGQLKVEIEMPPGMPISAGGSAGGSAGG [r17_519_TrROS] | 0.954 |
| SAGKKVKKITLTIKNKETGEYYKAEVIENENGEKYIKIINKKTGKIYIFKIKDGKIEPVKEISLKDIKPSAG [r5_619_TrROS_Hall] | 3.11 |
| SAGGSAGGSMTLKVTLPNGKVIELPLPEELENIPAETIAKLLGEENVRLELYSPDGVPYDFGASAGGSAGGS [r12_411_TrMRF] | 0.726 |

---

assay: folding stability dG unfold from trypsin proteolysis; higher = more stable
folding stability dG unfold reference
Measured Parameter: folding stability dG unfold (kcal/mol)

| Chain Sequence | Value Measured |
| --- | --- |
| SAGGSAGGPIDLDDIKIEEIEHERNPNGMMYHEVTIRFPGGKIPVWFHPNMSLDNAVDMLRAFISAGGSAGG [r6_233_TrROS] | 1.4 |
| SAGGMSVSFPVDSSEELKKLLPKDYLVEIVSTPPDGSKSVRVVRPEDLEIDLPEGEKYYFEIKFLPKESAGG [r13_461_TrMRF] | 0.442 |
| SAGGLAEYIARYLQENDPRARVEAEEGDVLDGVRVIRVRVERVDDAFGGDIPSSADFILVIPAGAPPTSAGG [r19_8_TrMRF] | 1.36 |
| SAGGSAGGSAGMVTRRMTPEEAEKFIADLPSDWSVEEISPLPENDIVEIKIKVEPPFKLQSAGGSAGGSAGG [r17_98_JUSTAS] | -0.199 |
| SAMLEEVEERAREIAERLREEYPDVEEFTVELELPLPDGRFLRVTVTIRRERDDEGDTFEVEVDVEEVDSAG [r14_788_TrMRF] | 3.47 |
| SAGGSAGGLKPGEEWLILFRIDIEIEPMPPNMSPDMAKRFPNMYHIEVKIDILIIPAEDLKELFSAGGSAGG [r6_831_TrROS] | 3.17 |
| PKIVEILDAKRTPDGSLVIKIKIEPPEPNVKIKVIVKTPNSFKVYEIDPTKTTLEITIPGNVTNPKIEVFGS [r1_428_TrMRF] | 2.51 |
| SAMSLEDMTPEELEELVKELIEKLREELEKEGKTIKPGETIEIEIEVKGKKLKIKITVDKDGNIKIEVESAG [r14_501_TrROS_Hall] | 2.87 |
| SAGGSAGGSAGGSKTIEIELPGMSPEEIAAAIAEELGLDDVKITVERTEDGLLRVTIEVSAGGSAGGSAGGS [r4_408_TrROS_Hall] | 1.57 |
| SASVEEVIEEAKELAKKLGAYVIVTVYKNNKKIGTYEYPSPSKNSPPTSITIESPDPNYKVKITIYPPGSAG [r14_728_JUSTAS] | 2.53 |
| SAGGSAGGSAGGDDNDPGKIKIEVEVETYPIPNPNGEPFYITTHTIKIPNLDIEFMMIMPSAGGSAGGSAGG [r7_945_TrROS] | 2.01 |
| SAGGSAGGMTLKIKVAPGAVIRIYNKDGELIEEIEVEEGEEVEIEIELPEEDLENLRIEILPAPSAGGSAGG [r6_471_TrROS_Hall] | 3.96 |
| SAGGSAGGSAGGGIYEVDENGNPLPPRPYLVLKIGYEVGYLPDGGAGLSLNIEIYPVYDASAGGSAGGSAGG [r7_572_TrMRF] | 3.18 |
| SAGGKMVIVKIRIKERKVKVEKTKDGKEKKVEVEEKEKEITLIVEGSEEEVKKLAEELEKLGLEVEVISAGG [r13_452_TrROS_Hall] | 1.2 |

---

assay: folding stability dG unfold from trypsin proteolysis; higher = more stable
folding stability dG unfold reference

| Chain Sequence | Quantity Unit | folding stability dG unfold |
| --- | --- | --- |
| SAGGSAGGSASVKELAEKLAEPGQTVMVIKRDGKEYLIVMSDEEAEALRKLFPDMEIERVRLSAGGSAGGSA [r18_198_TrROS_Hall] | kcal/mol | 1.59 |
| SASPEDTVTTTETEPTTISLGTASIPPDLEVLSVTVTTTTTTTYKVEPPGVPVKLSSTTTTTTTVTLKRTSA [r9_747_JUSTAS] | kcal/mol | 2.79 |
| SATETLTVVETRTVRDPAVPGTTTTETRVTEVTRPAPPPPPLSAEELARALAEAGLLERTDDGELKVVLSAG [r14_582_TrROS_Hall] | kcal/mol | -0.559 |
| SAGKMLVVRIEVEVEVEVTVEKDGKKETFKEKKKLTLTLVFESEEEAEAAKKELEKLFPDLKIEVVPLPSAG [r5_453_TrROS_Hall] | kcal/mol | 4.43 |
